molecular target: T1, Clostridium difficile toxin A (TcdA) (Clostridium difficile, UniProt P16154 1-2710); experiment: SPR (Biacore 3000), VHH over immobilized TcdA, 1:1 fit
T1 construct: mature; also called full-length TcdA
T1 sequence (P16154 whole entry): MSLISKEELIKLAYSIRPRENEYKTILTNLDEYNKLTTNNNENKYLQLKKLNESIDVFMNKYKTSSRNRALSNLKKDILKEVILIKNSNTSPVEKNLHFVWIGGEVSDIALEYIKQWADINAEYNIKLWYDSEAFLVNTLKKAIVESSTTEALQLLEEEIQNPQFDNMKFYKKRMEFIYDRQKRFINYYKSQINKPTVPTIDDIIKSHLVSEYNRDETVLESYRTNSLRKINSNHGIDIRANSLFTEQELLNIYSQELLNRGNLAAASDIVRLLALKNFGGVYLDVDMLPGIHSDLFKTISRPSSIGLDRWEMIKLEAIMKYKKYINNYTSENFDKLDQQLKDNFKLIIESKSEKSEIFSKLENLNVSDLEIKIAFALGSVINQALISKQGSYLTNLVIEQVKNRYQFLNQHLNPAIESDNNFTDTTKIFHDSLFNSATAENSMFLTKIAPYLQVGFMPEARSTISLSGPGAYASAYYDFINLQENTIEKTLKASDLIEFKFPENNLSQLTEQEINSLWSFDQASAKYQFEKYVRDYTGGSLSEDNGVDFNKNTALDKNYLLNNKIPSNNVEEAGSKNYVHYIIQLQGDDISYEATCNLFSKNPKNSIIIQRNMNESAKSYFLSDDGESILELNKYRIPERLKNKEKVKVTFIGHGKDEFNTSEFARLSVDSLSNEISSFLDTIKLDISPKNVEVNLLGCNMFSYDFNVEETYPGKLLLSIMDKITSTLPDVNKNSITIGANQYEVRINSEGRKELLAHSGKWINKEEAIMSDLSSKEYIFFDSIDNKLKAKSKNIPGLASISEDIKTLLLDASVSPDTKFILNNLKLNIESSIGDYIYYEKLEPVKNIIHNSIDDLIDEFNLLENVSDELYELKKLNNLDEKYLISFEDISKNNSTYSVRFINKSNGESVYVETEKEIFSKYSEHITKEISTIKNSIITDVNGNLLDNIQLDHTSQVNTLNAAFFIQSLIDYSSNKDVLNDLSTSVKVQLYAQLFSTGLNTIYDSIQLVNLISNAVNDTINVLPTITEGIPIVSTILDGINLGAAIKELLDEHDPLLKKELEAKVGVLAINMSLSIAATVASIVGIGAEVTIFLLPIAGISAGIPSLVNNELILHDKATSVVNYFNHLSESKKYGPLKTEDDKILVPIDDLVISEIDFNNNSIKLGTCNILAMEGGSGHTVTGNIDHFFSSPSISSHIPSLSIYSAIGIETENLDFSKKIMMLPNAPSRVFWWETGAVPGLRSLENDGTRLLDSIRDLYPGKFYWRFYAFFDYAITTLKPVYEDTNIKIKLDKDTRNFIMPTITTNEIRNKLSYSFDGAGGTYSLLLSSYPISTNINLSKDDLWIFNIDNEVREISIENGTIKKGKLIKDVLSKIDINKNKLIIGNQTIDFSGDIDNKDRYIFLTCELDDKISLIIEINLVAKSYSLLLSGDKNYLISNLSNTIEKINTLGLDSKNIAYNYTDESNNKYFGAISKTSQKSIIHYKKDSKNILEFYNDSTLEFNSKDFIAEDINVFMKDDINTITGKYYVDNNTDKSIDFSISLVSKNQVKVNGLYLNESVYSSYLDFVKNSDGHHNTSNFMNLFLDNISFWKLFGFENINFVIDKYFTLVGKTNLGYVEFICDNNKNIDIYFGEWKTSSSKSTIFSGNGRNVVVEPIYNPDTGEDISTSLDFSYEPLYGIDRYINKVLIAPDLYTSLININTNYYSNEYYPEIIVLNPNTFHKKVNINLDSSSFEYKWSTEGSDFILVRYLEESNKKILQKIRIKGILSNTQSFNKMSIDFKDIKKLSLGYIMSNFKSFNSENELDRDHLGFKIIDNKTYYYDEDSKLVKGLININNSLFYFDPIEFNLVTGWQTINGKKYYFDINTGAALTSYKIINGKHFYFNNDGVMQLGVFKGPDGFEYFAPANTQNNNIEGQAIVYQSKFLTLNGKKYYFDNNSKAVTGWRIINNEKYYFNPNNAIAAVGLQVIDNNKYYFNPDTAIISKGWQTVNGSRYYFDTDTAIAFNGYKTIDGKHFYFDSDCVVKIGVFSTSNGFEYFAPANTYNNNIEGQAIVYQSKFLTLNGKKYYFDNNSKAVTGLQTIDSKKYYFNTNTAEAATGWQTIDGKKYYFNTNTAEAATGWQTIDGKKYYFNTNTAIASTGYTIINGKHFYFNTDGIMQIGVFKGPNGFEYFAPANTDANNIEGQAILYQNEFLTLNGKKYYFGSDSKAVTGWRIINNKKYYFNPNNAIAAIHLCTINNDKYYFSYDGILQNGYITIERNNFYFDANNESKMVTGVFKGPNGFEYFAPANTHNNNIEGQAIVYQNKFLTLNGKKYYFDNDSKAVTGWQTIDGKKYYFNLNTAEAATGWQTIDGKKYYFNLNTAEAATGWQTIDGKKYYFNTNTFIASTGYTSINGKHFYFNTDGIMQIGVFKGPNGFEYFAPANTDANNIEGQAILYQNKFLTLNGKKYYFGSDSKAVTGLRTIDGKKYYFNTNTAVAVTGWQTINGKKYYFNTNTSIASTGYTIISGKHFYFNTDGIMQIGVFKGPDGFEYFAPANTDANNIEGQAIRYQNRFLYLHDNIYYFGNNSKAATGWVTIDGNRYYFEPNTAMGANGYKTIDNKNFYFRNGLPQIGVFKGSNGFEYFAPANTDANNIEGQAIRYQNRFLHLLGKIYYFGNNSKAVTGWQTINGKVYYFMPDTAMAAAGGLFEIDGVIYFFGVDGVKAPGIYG
READOUT KIND: kon (M⁻¹ s⁻¹)
Give the quantity in M⁻¹ s⁻¹, number only.

Query: Read the entry A26.8 VHH mutant E110Q (VHH, not shown: small tags and cut ends) VHH: QVKLEESGGGLVQAGGSLRLSCAASERTFSRYPVAWFRQAPGAEREFVAVISSTGTSTYYADSVKGRFTISRDNAKVTVYLQMNNLKREDTAVYFCAVNSQRTRLQDPNQYDYWGQGTQVTVSS and write its reported kon.
Result: 2.08e+06

Query: Read the entry A26.8-Q101K (VHH, not shown: small tags and cut ends) VHH: QVKLEESGGGLVQAGGSLRLSCAASERTFSRYPVAWFRQAPGAEREFVAVISSTGTSTYYADSVKGRFTISRDNAKVTVYLQMNNLKREDTAVYFCAVNSKRTRLQDPNEYDYWGQGTQVTVSS and write its reported kon.
Result: 2.7e+06

Query: Read the entry A26.8-T103W (VHH, not shown: small tags and cut ends) VHH: QVKLEESGGGLVQAGGSLRLSCAASERTFSRYPVAWFRQAPGAEREFVAVISSTGTSTYYADSVKGRFTISRDNAKVTVYLQMNNLKREDTAVYFCAVNSQRWRLQDPNEYDYWGQGTQVTVSS and write its reported kon.
Result: 2.39e+06

Query: Read the entry A26.8 VHH mutant D107Y (VHH, not shown: small tags and cut ends) VHH: QVKLEESGGGLVQAGGSLRLSCAASERTFSRYPVAWFRQAPGAEREFVAVISSTGTSTYYADSVKGRFTISRDNAKVTVYLQMNNLKREDTAVYFCAVNSQRTRLQYPNEYDYWGQGTQVTVSS and write its reported kon.
Result: 1.62e+06
